Recorded values, source the supplement of paper PMC10127200.

test system: DU145; assay: Euclidean distance of Cell Painting phenotypic profile (signed KS, 77 features) to DMSO centroid (dimensionless distance); 5 or 10 uM (library dependent); higher = stronger phenotypic change vs DMSO (phenoactivity); details: 48 h
Where a name gives a salt, the structure may show the parent alone.
Collected Euclidean distance values appear next to each entry.

MOLECULE	Euclidean distance
CCCOc1ccc2c(c1)CC[C@@H]1[C@@H]2CC[C@]2(C)[C@@H](OC)CC[C@@H]12	0.94
CCC(=O)NC[C@@H]1C[C@H]1c1cccc2c1CCO2	0.924
c1ccc(CN(CC2=NCCN2)c2ccccc2)cc1 [Antazoline HCl]	0.893
Cc1nc2n(c(=O)c1CCN1CCC(c3noc4cc(F)ccc34)CC1)CCCC2	0.723
N#CCNC(=O)c1ccc(-c2ccnc(Nc3ccc(N4CCOCC4)cc3)n2)cc1	3.36
CCCS(=O)(=O)N[C@H]1C[C@@H](N(C)c2ncnc3[nH]ccc23)C1	1.02
O=C(O)[C@@H](S)[C@@H](S)C(=O)O	1.53
COc1ccc([C@H]2CNC(=O)C2)cc1OC1CCCC1 [S- (+)-Rolipram]	1
NC[C@H]1O[C@H](O[C@H]2[C@H](O[C@@H]3O[C@H](CO)[C@@H](O)[C@H]3O)[C@@H](O)[C@H](N)C[C@@H]2N)[C@H](N)[C@@H](O)[C@@H]1O [Ribostamycin Sulfate]	1.23

* * *

tested on: 786-O; assay: Euclidean distance of Cell Painting phenotypic profile (signed KS, 77 features) to DMSO centroid (dimensionless distance); 5 or 10 uM (library dependent); higher = stronger phenotypic change vs DMSO (phenoactivity); details: 48 h
Where a name gives a salt, the structure may show the parent alone.

COMPOUND	Euclidean distance
COc1cc2c(cc1OC)[C@@H]1Cc3ccc(OC)c(OC)c3CN1CC2 [Tetrahydropalmatine]	0.584
CCCCC(=O)N(Cc1ccc(-c2ccccc2-c2nnn[nH]2)cc1)[C@H](C(=O)O)C(C)C [Valsartan]	1.68
CC(O)Cn1cnc2c1c(=O)n(C)c(=O)n2C (centres undefined) [Proxyphylline]	1.48
CC(C(O)c1ccc(O)cc1)N1CCC(Cc2ccccc2)CC1 (centres undefined) [Ifenprodil Tartrate]	0.976
CN1CCN(C2=Nc3cc(Cl)ccc3Nc3ccccc32)CC1 [Clozapine]	1.75
COc1c2occc2c(OC)c2c(=O)cc(C)oc12 [Khellin]	1.37
O=C(Nc1cccnc1)N1CCC(Cc2cccc(Oc3ccc(C(F)(F)F)cn3)c2)CC1	0.844
C=C(c1ccc(C(=O)O)cc1)c1cc2c(cc1C)C(C)(C)CCC2(C)C [Bexarotene]	2.33
O=C(O)C1CSCN1 (centres undefined) [Timonacic]	1.39

* * *

Collected Euclidean distance values appear next to each entry.
tested on: DU145; test: Euclidean distance of Cell Painting phenotypic profile (signed KS, 77 features) to DMSO centroid (dimensionless distance); 5 or 10 uM (library dependent); higher = stronger phenotypic change vs DMSO (phenoactivity); settings: 48 h

COMPOUND	Euclidean distance
CN(C)CCc1c[nH]c2ccc(CS(=O)(=O)N3CCCC3)cc12 [Almotriptan Malate]	0.545
OCc1c[nH]c2ccccc12 [Indole-3-carbinol]	0.838
O=C(C[S+]([O-])Cc1ccco1)NC/C=C\COc1cc(CN2CCCCC2)ccn1 (centres undefined) [Lafutidine]	1.52
Nc1cc(C(F)(F)F)c(-c2cc(N3CCOCC3)nc(N3CCOCC3)n2)cn1 [Buparlisib (BKM120. NVP-BKM120)]	2.88

* * *

system: OVCAR4; test: Euclidean distance of Cell Painting phenotypic profile (signed KS, 77 features) to DMSO centroid (dimensionless distance); 5 or 10 uM (library dependent); higher = stronger phenotypic change vs DMSO (phenoactivity); conditions: 48 h
Counter-ions that a name gives are not always drawn.
Collected Euclidean distance values appear next to each entry.

MOLECULE	Euclidean distance
CN1[C@@H]2CC[C@H]1C[C@@H](OC(c1ccccc1)c1ccccc1)C2 [Benztropine mesylate]	1.21
CC[C@]1(O)C[C@@H]2CN(CCc3c([nH]c4ccccc34)[C@@](C(=O)OC)(c3cc4c(cc3OC)N(C)[C@H]3[C@@](O)(C(=O)OC)[C@H](OC(C)=O)[C@]5(CC)C=CCN6CC[C@]43[C@@H]65)C2)C1 [Vinblastine sulfate]	3
Cc1ccc(NC(=O)c2cccc(N(C)C)c2)cc1NC(=O)c1ccc(O)cc1	2.26
Clc1ccc(COC(Cn2ccnc2)c2ccc(Cl)cc2Cl)cc1 (stereo unspecified) [Econazole]	0.709
Cc1cc2c(C(N)=O)cccc2n1-c1nc2c(c(NCc3ccccc3)n1)COCC2	3.98
CO[C@H]1/C=C/O[C@@]2(C)Oc3c(C)c(O)c4c(O)c(c(/C=N/N5CCN(C)CC5)c(O)c4c3C2=O)NC(=O)/C(C)=C\C=C\[C@H](C)[C@H](O)[C@@H](C)[C@@H](O)[C@@H](C)[C@H](OC(C)=O)[C@@H]1C [Rifampin]	1.14

* * *

tested on: 786-O; test: Euclidean distance of Cell Painting phenotypic profile (signed KS, 77 features) to DMSO centroid (dimensionless distance); 5 or 10 uM (library dependent); higher = stronger phenotypic change vs DMSO (phenoactivity); conditions: 48 h

COMPOUND	TESTED TARGET	Euclidean distance
NC(=O)[C@@H]1CC[C@@H]2CN1C(=O)N2OS(=O)(=O)O [Avibactam sodium]	786-O	1.03
CCOC(=O)C1=C[C@@H](OC(CC)CC)[C@H](NC(C)=O)[C@@H](N)C1 [Oseltamivir phosphate]	786-O	0.628
CCCCCCOC(=O)NC(=N)c1ccc(NCc2nc3cc(C(=O)N(CCC(=O)OCC)c4ccccn4)ccc3n2C)cc1 [Dabigatran Etexilate]	786-O	1.9
C[C@@H](O)[C@H]1C(=O)N2C(C(=O)O)=C([C@H]3CCCO3)S[C@H]12 [Faropenem Sodium]	786-O	1.24

* * *

test system: 786-O; assay: Euclidean distance of Cell Painting phenotypic profile (signed KS, 77 features) to DMSO centroid (dimensionless distance); 5 or 10 uM (library dependent); higher = stronger phenotypic change vs DMSO (phenoactivity); settings: 48 h
Collected Euclidean distance values appear next to each entry.

STRUCTURE	Euclidean distance
N[C@@H](CSCCCO)C(=O)O	1.5
COc1ccc2c(c1)c(CC(=O)O)c(C)n2C(=O)c1ccc(Cl)cc1	1.44
CC(C)N(CCCNC(=O)Nc1ccc(C(C)(C)C)cc1)C[C@H]1O[C@@H](n2cc(Br)c3c(N)ncnc32)[C@H](O)[C@@H]1O	0.633
CNC(=O)c1cnn(-c2nc(N)c3ncn([C@@H]4O[C@H](CO)[C@@H](O)[C@H]4O)c3n2)c1	0.517

* * *

Collected Euclidean distance values appear next to each entry.
test system: DU145; assay: Euclidean distance of Cell Painting phenotypic profile (signed KS, 77 features) to DMSO centroid (dimensionless distance); 5 or 10 uM (library dependent); higher = stronger phenotypic change vs DMSO (phenoactivity); settings: 48 h
Structures can show the parent of a compound that is named as a salt.

COMPOUND	Euclidean distance
COc1cc2c(cc1OC)-c1cc3ccc(OC)c(OC)c3c[n+]1CC2 [Palmatine]	0.565
CCC/N=C1\S/C(=C\c2ccc(OC[C@H](O)CO)c(Cl)c2)C(=O)N1c1ccccc1C [Ponesimod]	0.669
CCCCCOc1ccc(-c2cc(-c3ccc(C(=O)N[C@H]4C[C@@H](O)[C@@H](O)NC(=O)[C@@H]5[C@@H](O)[C@@H](C)CN5C(=O)[C@H]([C@H](O)CC(N)=O)NC(=O)[C@H]([C@H](O)[C@@H](O)c5ccc(O)c(OS(=O)(=O)O)c5)NC(=O)[C@@H]5C[C@@H](O)CN5C(=O)[C@H]([C@@H](C)O)NC4=O)cc3)no2)cc1 [Micafungin Sodium]	1.1
CC(=O)[C@H]1CC[C@H]2[C@@H]3CC=C4C[C@@H](O)CC[C@]4(C)[C@H]3CC[C@]12C [Pregnenolone]	0.872
CCCCC1C(=O)N(c2ccccc2)N(c2ccccc2)C1=O [Phenylbutazone]	1.5
C[C@@](Cc1ccc(O)c(O)c1)(NN)C(=O)O [Carbidopa]	0.985
CCCCC[C@H](O)/C=C/[C@H]1[C@H](O)CC(=O)[C@@H]1CCCCCCC(=O)O [Alprostadil]	0.936
C=CC[N+]1([C@H]2C[C@H]3[C@@H]4CC[C@H]5C[C@H](O)[C@@H](N6CCOCC6)C[C@]5(C)[C@H]4CC[C@]3(C)[C@H]2OC(C)=O)CCCC1 [Rocuronium Bromide]	1.92
COc1cc(F)c(F)c(Nc2ccc(I)cc2F)c1NS(=O)(=O)C1(C[C@H](O)CO)CC1 [Refametinib (RDEA119. Bay 86-9766)]	2.83
CC(C)CCNC(=O)[C@H](CC(C)C)NC(=O)[C@H]1O[C@@H]1C(=O)O [Loxistatin Acid (E-64C)]	1.48
CC(C(=O)O)c1cccc(Oc2ccccc2)c1 (stereo not given) [Fenoprofen Calcium]	0.599
CN1CCN(c2cc3c(cc2F)c(=O)c(C(=O)O)cn3-c2ccc(F)cc2)CC1 [Difloxacin hydrochloride]	0.906
CCCCN1CCCC[C@H]1C(=O)Nc1c(C)cccc1C [Levobupivacaine HCl]	0.6
C[C@@H]1C[C@H]2[C@@H]3C[C@H](F)C4=CC(=O)C=C[C@]4(C)[C@@]3(F)[C@@H](O)C[C@]2(C)[C@@]1(OC(=O)c1ccco1)C(=O)SCF [fluticasone furoate]	2.56
CC(=O)O[C@@]12CO[C@@H]1C[C@H](O)[C@@]1(C)C(=O)[C@H](O)C3=C(C)[C@@H](OC(=O)[C@H](O)[C@@H](NC(=O)OC(C)(C)C)c4ccccc4)C[C@@](O)([C@@H](OC(=O)c4ccccc4)[C@H]21)C3(C)C [Docetaxel Trihydrate]	3.17
COCCCOc1ccnc(C[S+]([O-])c2nc3ccccc3[nH]2)c1C (stereo not given) [Rabeprazole]	0.942
COc1ccc2c(c1)c(CC(=O)O)c(C)n2C(=O)c1ccc(Cl)cc1 [Indomethacin]	1.66
CCOC(=O)OC(C)OC1=C(C(=O)Nc2ccccn2)N(C)S(=O)(=O)c2ccccc21 (stereo not given) [Ampiroxicam]	0.928
CCCCCCCCCCCCCCCCOc1nc2ccc(C)cc2c(=O)o1 [Cetilistat]	0.996
CCCC(=O)[O-].[Na+] [Sodium butyrate]	1.17
O=c1[nH]cnc2c1ncn2[C@@H]1O[C@H](CO)[C@@H](O)[C@H]1O [Inosine]	0.639
CC(C)(C)NC(=O)N[C@H](C(=O)N1C[C@H]2[C@@H]([C@H]1C(=O)NC(CC1CCC1)C(=O)C(N)=O)C2(C)C)C(C)(C)C (stereo not given in full) [Boceprevir]	1.59
Cc1cc(-c2ccc(CC(=O)Nc3ccc(-c4cccnc4)cc3)cc2)ccn1	0.823
COc1cc(/C=C/C(=O)O)ccc1O [Sodium ferulate]	1.14
O=c1cc(N2CCOCC2)oc2c(-c3ccccc3)cccc12	1.16
Cc1ccccc1N1CCN(CCc2nnc3n2CCCC3)CC1 [Dapiprazole Hydrochloride]	0.81
Cn1cc(-c2nc(N[C@@H]3CCCC[C@@H]3N)c(F)c3c2C(=O)NC3)cn1	2.88
O=C([O-])c1ccccc1O.[Na+] [Sodium salicylate]	0.888
COC1=CC(c2cc3ccccc3[nH]2)=N/C1=C\c1[nH]c(C)cc1C [Obatoclax Mesylate (GX15-070)]	2.78
Nc1nc(=O)n([C@@H]2CS[C@H](CO)O2)cc1F [Emtricitabine]	0.954
